meta.source: ChEMBL document CHEMBL5303304

Tested on: Fibroblast
measurementDescription: Incucyte cell viability with human fibroblast; further: unitless GR value; below 1 slowed growth and below 0 cell loss
Format: toxicity, cell-based
recordedConditions: 18 h, 10 µM, compound concentration 10 uM, replicate number 2
Give rule met when the value for Growth Rate is at least -0.1. Give rule not met when it is less.

Consider the following illustrative entries.
1. CNCc1ccc(-c2cc(-c3nc(-c4ccc(S(=O)(=O)C(C)C)cc4)cnc3N)on2)cc1    rule not met
2. CC(C)S(=O)(=O)c1ccccc1Nc1nc(N[C@@H]2CCCN(CCCCCCCNC(=O)COc3cccc4c3C(=O)N(C3CCC(=O)NC3=O)C4=O)C2)ncc1Cl (stereo partly drawn)    rule not met
3. Cc1cc(=O)oc2cc(NC(=O)[C@H](Cc3ccc(I)cc3)NC(=O)[C@H]3N[C@@H]4CC[C@H]3C4)ccc12.O=C(O)C(F)(F)F    rule met
4. COc1cc(-c2cc3ncccc3c(OC[C@H]3CNC(=O)C3)n2)cc(OC)c1OC1CCOCC1.O=C(O)C(F)(F)F    rule met

Would you kindly look at the next entry?
**Query** API: above_or_equal(metric=Growth Rate, cutoff=-0.1) for item CC(=O)Nc1nc(C)c(S(=O)(=O)Nc2ccc(C(O)(C(F)(F)F)C(F)(F)F)cc2)s1
**Result** rule met

###

Below: a set of entries, each annotated with reported Growth Rate.
Test system: U2OS
measurementDescription: Incucyte cell viability with U2OS; further: unitless GR value; below 1 slowed growth and below 0 cell loss
Type: toxicity, cell-based
recordedConditions: human, 0 h, 10 µM, compound concentration 10 uM, replicate number 2
Reply: number alone, nothing else.

Solved entries (count: 3):
1. CN(C)[C@H]1CCN(c2cc(C(F)(F)F)c(C#N)c(Nc3cccc(CCC(=O)O)c3)n2)C1.O=C(O)C(F)(F)F    0.54
2. O=C(Nc1ccc(-n2nc(-c3cccnc3)cc2C(F)(F)F)cn1)c1ccc(-c2ccccc2)c(F)c1 [BI 2049]    -0.06
3. CO[C@H](C)CN1CC[C@@]2(C)c3ccc(O)cc3C[C@@H]1C2(C)C.Cl    0.71

**Query** Check the records and state Growth Rate for Cc1nc2cccnc2n2c(-c3cc(C(C)(C)O)ncc3Cl)nnc12
**Result** 0.27

**Query** Give the value of Growth Rate reported for the following: COc1ccc(CC[C@@H](OC(=O)[C@H]2CCCCN2C(=O)[C@@H](c2cc(OC)c(OC)c(OC)c2)C2CCCCC2)c2cccc(OCCN3CCOCC3)c2)cc1OC
**Result** -1

###

Tested on: HEK-293T
measurementDescription: Incucyte cell viability with HEK293T; further: unitless GR value; below 1 slowed growth and below 0 cell loss
Format: toxicity, cell-based
recordedConditions: human, 12 h, 10 µM, compound concentration 10 uM, replicate number 2
Growth Rate by entry:

1. COc1c(OCCCN2CCOCC2)ccc2c1N=C(NC(=O)c1cnc(N)nc1)N1CCN=C21    -0.17
2. Cc1ccc(S(=O)(=O)Nc2ccc(-n3nc(C(F)(F)F)cc3C(F)(F)F)cc2)cc1    0.66
3. NC(=O)c1cc2c(-c3ccc(C(=O)NCc4ccnc(Cl)c4)s3)cccc2s1    -0.32
4. COc1ccc(-c2csc(NC(=O)[C@H]3CCCCN3S(=O)(=O)c3ccc(C)cc3)n2)cc1    0.37
5. CC(C)(C)NC(=O)c1cncn1C1CCN(c2ccc(-c3nnc(C(F)(F)F)o3)cn2)CC1    -0.22

**Query** System HEK-293T. Read-out Growth Rate. Item Cc1nnc2ccc(-c3cccc(C(F)(F)F)c3)nn12 . Report value.
**Result** 0.87

**Query** Under HEK-293T, report Growth Rate for Cc1ccc(NC(=O)c2ccc(CN3CC[C@H](N(C)C)C3)c(C(F)(F)F)c2)cc1Nc1nccc(-c2cncnc2)n1
**Result** 0.68

**Query** Give Growth Rate only, for CCN1CCN(Cc2ccc(NC(=O)Nc3ccc(Oc4cc(NC)ncn4)cc3)cc2C(F)(F)F)CC1 , using HEK-293T data.
**Result** -0.4

**Query** Answer briefly: Growth Rate recorded on HEK-293T for CN(C)C/C=C/C(=O)Nc1cc2c(Nc3ccc(F)c(Cl)c3)ncnc2cc1OC[C@@H]1CCCO1
**Result** -0.34

**Query** Name the value of Growth Rate reported for CCc1c(-c2ccc3[nH]ncc3c2)cnc(N)c1-c1ccc(O)cc1 when tested on HEK-293T.
**Result** 0.9
